All values here come from ChEMBL document CHEMBL3751797.

Molecular target: TRAF2 and NCK-interacting protein kinase (Homo sapiens, UniProt Q9UKE5)
Test: Competitive inhibition of recombinant TNIK (unknown origin) using LRRKtide as substrate after 1 hr in presence of 30 uM ATP
Sequence (Q9UKE5 whole entry): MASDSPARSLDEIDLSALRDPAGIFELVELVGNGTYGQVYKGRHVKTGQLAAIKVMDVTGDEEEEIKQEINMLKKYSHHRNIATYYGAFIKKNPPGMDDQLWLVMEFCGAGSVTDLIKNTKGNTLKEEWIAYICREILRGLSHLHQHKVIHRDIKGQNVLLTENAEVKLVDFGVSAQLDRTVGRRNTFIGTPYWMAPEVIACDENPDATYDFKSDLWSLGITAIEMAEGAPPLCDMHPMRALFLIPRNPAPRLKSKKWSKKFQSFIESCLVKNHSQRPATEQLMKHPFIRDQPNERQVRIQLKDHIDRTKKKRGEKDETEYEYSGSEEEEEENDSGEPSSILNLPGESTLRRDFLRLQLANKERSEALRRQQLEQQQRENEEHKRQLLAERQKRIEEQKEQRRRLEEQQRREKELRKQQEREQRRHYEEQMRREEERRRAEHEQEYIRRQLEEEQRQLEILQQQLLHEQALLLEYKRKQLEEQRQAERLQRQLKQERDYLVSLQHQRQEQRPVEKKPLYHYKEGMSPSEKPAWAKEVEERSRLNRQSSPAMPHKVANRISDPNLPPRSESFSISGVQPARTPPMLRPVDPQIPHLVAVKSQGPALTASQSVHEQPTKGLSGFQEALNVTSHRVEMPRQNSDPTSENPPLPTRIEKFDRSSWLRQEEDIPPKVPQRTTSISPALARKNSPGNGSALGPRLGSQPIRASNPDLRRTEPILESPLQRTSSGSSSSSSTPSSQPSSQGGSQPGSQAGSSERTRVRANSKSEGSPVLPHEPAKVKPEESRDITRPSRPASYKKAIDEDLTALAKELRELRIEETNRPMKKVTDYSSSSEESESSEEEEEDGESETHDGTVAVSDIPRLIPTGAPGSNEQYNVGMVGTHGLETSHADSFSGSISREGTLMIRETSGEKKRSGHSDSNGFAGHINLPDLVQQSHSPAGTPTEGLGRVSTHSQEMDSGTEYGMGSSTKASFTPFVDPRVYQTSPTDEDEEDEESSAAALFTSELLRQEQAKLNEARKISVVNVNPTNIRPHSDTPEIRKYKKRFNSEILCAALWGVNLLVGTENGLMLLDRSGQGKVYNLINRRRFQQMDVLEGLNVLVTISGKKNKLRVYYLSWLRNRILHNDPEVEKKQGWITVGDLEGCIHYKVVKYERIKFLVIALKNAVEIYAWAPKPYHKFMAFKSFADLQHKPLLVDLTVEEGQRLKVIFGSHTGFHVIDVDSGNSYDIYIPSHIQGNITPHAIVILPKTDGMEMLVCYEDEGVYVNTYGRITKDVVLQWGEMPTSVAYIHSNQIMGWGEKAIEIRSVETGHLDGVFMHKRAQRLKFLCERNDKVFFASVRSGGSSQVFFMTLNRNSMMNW
measured-parameter: pIC50
Please keep in mind that pIC50 is minus log10 of the molar concentration; only the number is needed.

Need pIC50, item `CN1CCN(c2ccc(NC(=O)c3ccc(-c4cc(Cl)ccc4Cl)o3)cc2)CC1`
6.07

###

Biological target: TRAF2 and NCK-interacting protein kinase (Homo sapiens)
Experiment: Competitive inhibition of recombinant TNIK (unknown origin) using LRRKtide as substrate after 1 hr in presence of 300 uM ATP
measured-parameter: IC50 (µM)
Expressed in µM, but write only the number.

Need IC50, item `CN1CCN(c2ccc(NC(=O)c3ccc(-c4cc(Cl)ccc4Cl)o3)cc2)CC1`
6.18

###

Molecular target: TRAF2 and NCK-interacting protein kinase (Homo sapiens)
Experiment: Inhibition of recombinant TNIK (unknown origin) using LRRKtide as substrate at 10 uM after 1 hr in presence of 30 uM ATP
Sequence (Q9UKE5 whole entry, looked up): as the sequence (Q9UKE5 whole entry) above
inhibition values for the compounds below.
Expressed in %, but write only the number.

record_smiles=Cc1ccccc1C(=O)N1CCN(c2ccc(NC(=O)c3ccc(-c4ccc(Cl)cc4)o3)cc2)CC1 val=12.9
record_smiles=COc1ccc(C(=O)/C=C/Nc2ccc(C)c(C)c2)cc1 val=32
record_smiles=CC(C)(C)c1ccc(/C=C/C(=O)Nc2ccccc2C(N)=O)cc1 val=63

Need inhibition, item `Cc1cc(C(=O)Nc2ccccc2C(N)=O)sc1-c1ccccc1`
61.7

###

Biological target: TRAF2 and NCK-interacting protein kinase (Homo sapiens, UniProt Q9UKE5)
Experiment: Inhibition of recombinant TNIK (unknown origin) using LRRKtide as substrate at 10 uM after 1 hr in presence of 30 uM ATP
inhibition values for the compounds below.
Expressed in %, but write only the number.

Need inhibition, item `Cc1cc([N+](=O)[O-])ccc1NC(=O)c1ccc(-c2cccc(Cl)c2Cl)o1`
4.9

Need inhibition, item `CC(C)C(=O)Nc1cccc(NC(=O)c2ccc(-c3ccc(Cl)cc3)o2)c1`
4.1

Need inhibition, item `O=C(Nc1nnc(/C=C/c2ccccc2)s1)c1ccco1`
70

Need inhibition, item `O=C(Nc1ccccc1Cl)c1ccc(-c2ccc(Cl)cc2)o1`
18.7

Need inhibition, item `Cc1cc([N+](=O)[O-])ccc1-c1ccc(C(=O)Nc2cccc(Cl)c2N2CCOCC2)o1`
22.3

Need inhibition, item `CC(=O)Nc1ccc(NC(=O)c2ccc(-c3ccc(Cl)c(Cl)c3)o2)cc1`
23.1
